study-target: T1, p1 NTR (Tetrahymena, UniProt Q22VV9 1-150)
T1 sequence: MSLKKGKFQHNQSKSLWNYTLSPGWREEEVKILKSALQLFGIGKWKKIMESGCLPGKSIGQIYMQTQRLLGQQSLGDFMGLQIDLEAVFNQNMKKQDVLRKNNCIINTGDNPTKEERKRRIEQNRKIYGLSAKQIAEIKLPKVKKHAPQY
experimental-details: fluorescence polarization

binder: umDNA 6-FAM (dsDNA) DNA 1: AACTTTCTTAACATCTTAACTTTAACT DNA 2: AGTTAAAGTTAAGATGTTAAGAAAGTT
Kd, nM: 37
--
binder: hmDNA 6-FAM (27ATrich_6mA_s / 27ATrich_6FAM_a) (dsDNA, N6-methyl-dA at position 13 of strand 1) DNA 1: AACTTTCTTAACATCTTAACTTTAACT DNA 2: AGTTAAAGTTAAGATGTTAAGAAAGTT
Kd, nM: 35
